Reference source: ChEMBL document CHEMBL1156690

- assay.target: UniProtKB Q7ZJM1
- Sequence (Q7ZJM1 whole entry): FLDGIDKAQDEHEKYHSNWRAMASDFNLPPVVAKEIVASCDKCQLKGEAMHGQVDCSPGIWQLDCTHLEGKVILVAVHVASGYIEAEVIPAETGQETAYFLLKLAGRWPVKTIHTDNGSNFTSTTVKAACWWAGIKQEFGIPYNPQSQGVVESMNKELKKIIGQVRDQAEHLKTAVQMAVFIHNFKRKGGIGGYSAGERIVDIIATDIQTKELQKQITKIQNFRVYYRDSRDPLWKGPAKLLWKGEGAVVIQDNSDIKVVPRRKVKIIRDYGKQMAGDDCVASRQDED
- method.summary: Inhibition of HIV1 integrase 3' processing activity
What IC50 was measured for each of the following?

Consider the following illustrative entries.
Cc1cc(S(=O)(=O)Nc2nc(=O)c3ccccc3n2C)c(SCc2ccccc2)cc1Cl :: > 100 µM
COc1cc2nc(NS(=O)(=O)c3cc(C)c(Cl)cc3S)n(N)c(=O)c2cc1OC :: > 100 µM

Problem: Fill in the blank: the reported IC50 of Cc1cc(S(=O)(=O)Nc2nc3ccccc3c(=O)n2N)c(S)cc1Cl is ____.
Result: > 100 µM

###

- System: SNB-75
- method.summary: Growth inhibition of human SNB75 cells
- Format: functional
What GI50 was measured for each of the following?

Consider the following illustrative entries.
Cc1cc(S(=O)(=O)Nc2nc3cc(-c4ccccc4)sc3c(=O)n2Cc2ccccc2)c(S)cc1Cl :: > 100 µM
Cc1cc(S(=O)(=O)Nc2nc3cc(-c4ccc(Cl)cc4)sc3c(=O)n2Cc2ccccc2)c(S)cc1Cl :: > 100 µM

# ---- query compound ----
Problem: Fill in the blank: the reported GI50 of Cc1cc(S(=O)(=O)Nc2nc3cc(-c4ccsc4)sc3c(=O)n2Cc2ccco2)c(S)cc1Cl is ____.
Result: > 100 µM

###

What GI50 was measured for each of the following?
- Test system: KM12
- method.summary: Growth inhibition of human KM12 cells
- Type: functional

Cc1cc(S(=O)(=O)Nc2nc3cc(-c4ccccc4)sc3c(=O)n2Cc2ccccc2)c(S)cc1Cl :: > 100 µM

Required: GI50, one value per compound below.
1. Cc1cc(S(=O)(=O)Nc2nc3cc(-c4ccc(Cl)cc4)sc3c(=O)n2Cc2ccccc2)c(S)cc1Cl
2. Cc1cc(S(=O)(=O)Nc2nc3cc(-c4ccsc4)sc3c(=O)n2Cc2ccco2)c(S)cc1Cl

Result:
> 100 µM
> 100 µM

###

- Tested on: HOP-62
- method.summary: Growth inhibition of human HOP62 cells
- Type: functional
reported.endpoint: GI50

Consider the following illustrative entries.
Cc1cc(S(=O)(=O)Nc2nc3cc(-c4ccc(Cl)cc4)sc3c(=O)n2Cc2ccccc2)c(S)cc1Cl :: > 100 µM
Cc1cc(S(=O)(=O)Nc2nc3cc(-c4ccccc4)sc3c(=O)n2Cc2ccccc2)c(S)cc1Cl :: > 100 µM

# ---- query compound ----
Problem: Under HOP-62: GI50 value of Cc1cc(S(=O)(=O)Nc2nc3cc(-c4ccsc4)sc3c(=O)n2Cc2ccco2)c(S)cc1Cl ?
Result: > 100 µM

###

- Tested on: SR
- method.summary: Growth inhibition of human SR cells
- Type: functional
reported.endpoint: GI50

Consider the following illustrative entries.
Cc1cc(S(=O)(=O)Nc2nc3cc(-c4ccc(Cl)cc4)sc3c(=O)n2Cc2ccccc2)c(S)cc1Cl :: > 100 µM
Cc1cc(S(=O)(=O)Nc2nc3cc(-c4ccccc4)sc3c(=O)n2Cc2ccccc2)c(S)cc1Cl :: > 100 µM

# ---- query compound ----
Problem: Fill in the blank: the reported GI50 of Cc1cc(S(=O)(=O)Nc2nc3cc(-c4ccsc4)sc3c(=O)n2Cc2ccco2)c(S)cc1Cl is ____.
Result: > 100 µM
